Provenance of the data: patent EP4345091A1

TEST DESCRIPTION: Stability in human plasma (enzymatic hydrolysis)
CONDITION INFO: 72h
Please go through the items and note down their Degradation (%) 72h.
I only need the number, in %, no unit after it.

Challenge: Specify Degradation (%) 72h for CCCCCCCCCCOC(=O)c1cc([N+](=O)[O-])cc(C(F)(F)F)c1 [Compound 4d] and stop.
Response given: 60

Challenge: State its Degradation (%) 72h: CCCCOC(=O)c1cc([N+](=O)[O-])cc(C(F)(F)F)c1 [Compound 4a]
Response given: 100

Challenge: State, in one line, measured Degradation (%) 72h of CCCCCCOC(=O)c1ccccc1 [Compound 1b, Hexyl benzoate]
Response given: 100

Challenge: Check the records and state Degradation (%) 72h for CCCCCCCCCCCCOC(=O)c1cc([N+](=O)[O-])cc(C(F)(F)F)c1 [Compound 4e]
Response given: 3
